Could you please report measured Fold-Shift, Naïve ED50 vs. Second ED50 for the items listed next?
Tested on: C57BL/6J mice
Assay: Acute antinociceptive tolerance (tail-withdrawal assay, dosing at 0 and 8 h)
Settings: i.c.v., 0 h vs 8 h
Give just the numeric value; fold need not be written.

Query string: Give the reported Fold-Shift, Naïve ED50 vs. Second ED50 for O=C1N[C@@H](Cc2ccccc2)C(=O)N2CCC[C@@H]2C(=O)N[C@@H](Cc2ccccc2)C(=O)N[C@H]1Cc1c[nH]c2ccccc12 [CJ-15,208, cyclo[Phe-D-Pro-Phe-Trp]] (system: C57BL/6J mice).
Result string: 2.87

Query string: Next molecule up: O=C1N[C@H](Cc2ccccc2)C(=O)N2CCC[C@@H]2C(=O)N[C@H](Cc2ccccc2)C(=O)N[C@H]1Cc1c[nH]c2ccccc12 (single isomer, unassigned) [Stereoisomer 3, cyclo[D-Phe-D-Pro-D-Phe-Trp]]
Result string: 5.19

Query string: Another: O=C1N[C@H](Cc2c[nH]c3ccccc23)C(=O)N[C@H](Cc2ccccc2)C(=O)N2CCC[C@@H]2C(=O)N[C@H]1Cc1ccccc1 (single isomer, unassigned) [Stereoisomer 4, cyclo[D-Phe-D-Pro-Phe-D-Trp]]
Result string: 0.54

Query string: Same question, O=C1N[C@H](Cc2ccccc2)C(=O)N[C@H](Cc2c[nH]c3ccccc23)C(=O)N[C@@H](Cc2ccccc2)C(=O)N2CCC[C@H]12 (single isomer, unassigned) [Stereoisomer 5, cyclo[Phe-D-Pro-D-Phe-D-Trp]] this time
Result string: 1.09

Query string: Same for CN1CC[C@]23c4c5ccc(O)c4O[C@H]2[C@@H](O)C=C[C@H]3[C@H]1C5 [Morphine, morphine, reference compound]
Result string: 7.63

Query string: Same question, O=C1N[C@@H](Cc2ccccc2)C(=O)N2CCC[C@@H]2C(=O)N[C@H](Cc2ccccc2)C(=O)N[C@H]1Cc1c[nH]c2ccccc12 (single isomer, unassigned) [Stereoisomer 2, cyclo[Phe-D-Pro-D-Phe-Trp]] this time
Result string: 6.13

Query string: // next record O=C1N[C@H](Cc2ccccc2)C(=O)N2CCC[C@@H]2C(=O)N[C@@H](Cc2ccccc2)C(=O)N[C@H]1Cc1c[nH]c2ccccc12 (single isomer, unassigned) [Stereoisomer 1, cyclo[D-Phe-D-Pro-Phe-Trp]]
Result string: 31.2

###

For reference, Ki measured on rat KOR (Rattus norvegicus, UniProt P34975):

Query string: Requested field: Ki. Item: O=C1N[C@H](Cc2c[nH]c3ccccc23)C(=O)N[C@H](Cc2ccccc2)C(=O)N2CCC[C@@H]2C(=O)N[C@H]1Cc1ccccc1 (single isomer, unassigned) [Stereoisomer 4, cyclo[D-Phe-D-Pro-Phe-D-Trp]]
Result string: > 10 µM

Query string: Now the same for O=C1N[C@H](Cc2ccccc2)C(=O)N[C@H](Cc2c[nH]c3ccccc23)C(=O)N[C@@H](Cc2ccccc2)C(=O)N2CCC[C@H]12 (single isomer, unassigned) [Stereoisomer 5, cyclo[Phe-D-Pro-D-Phe-D-Trp]]
Result string: 0.353 µM

Query string: // repeat for O=C1N[C@@H](Cc2ccccc2)C(=O)N2CCC[C@@H]2C(=O)N[C@@H](Cc2ccccc2)C(=O)N[C@H]1Cc1c[nH]c2ccccc12 [CJ-15,208, cyclo[Phe-D-Pro-Phe-Trp]] and report
Result string: 0.0274 µM

Query string: Same for O=C1N[C@H](Cc2ccccc2)C(=O)N2CCC[C@@H]2C(=O)N[C@H](Cc2ccccc2)C(=O)N[C@H]1Cc1c[nH]c2ccccc12 (single isomer, unassigned) [Stereoisomer 3, cyclo[D-Phe-D-Pro-D-Phe-Trp]]
Result string: 2.56 µM

Query string: Also need O=C1N[C@H](Cc2ccccc2)C(=O)N2CCC[C@@H]2C(=O)N[C@@H](Cc2ccccc2)C(=O)N[C@H]1Cc1c[nH]c2ccccc12 (single isomer, unassigned) [Stereoisomer 1, cyclo[D-Phe-D-Pro-Phe-Trp]] , thanks.
Result string: 5.12 µM

###

Assay: Metabolic stability in mouse liver microsomes
Type: in vitro ADME
Details: pH 7.4, 5 µM peptide, 0.25 mg/mL protein, with NADPH, 37 °C, read-out: t1/2 in mouse liver microsomes
Value kind: half-life at 5 µM
Could you write the number and then its unit?

Query string: Quick one: half-life at 5 µM of O=C1N[C@H](Cc2ccccc2)C(=O)N2CCC[C@@H]2C(=O)N[C@H](Cc2ccccc2)C(=O)N[C@H]1Cc1c[nH]c2ccccc12 (single isomer, unassigned) [Stereoisomer 3, cyclo[D-Phe-D-Pro-D-Phe-Trp]] ?
Result string: 6 min

Query string: Moving on to O=C1N[C@H](Cc2ccccc2)C(=O)N2CCC[C@@H]2C(=O)N[C@@H](Cc2ccccc2)C(=O)N[C@H]1Cc1c[nH]c2ccccc12 (single isomer, unassigned) [Stereoisomer 1, cyclo[D-Phe-D-Pro-Phe-Trp]]
Result string: 54 min

Query string: Okay, and O=C1N[C@H](Cc2c[nH]c3ccccc23)C(=O)N[C@H](Cc2ccccc2)C(=O)N2CCC[C@@H]2C(=O)N[C@H]1Cc1ccccc1 (single isomer, unassigned) [Stereoisomer 4, cyclo[D-Phe-D-Pro-Phe-D-Trp]] ?
Result string: 30 min

Query string: # iterate: O=C1N[C@@H](Cc2ccccc2)C(=O)N2CCC[C@@H]2C(=O)N[C@H](Cc2ccccc2)C(=O)N[C@H]1Cc1c[nH]c2ccccc12 (single isomer, unassigned) [Stereoisomer 2, cyclo[Phe-D-Pro-D-Phe-Trp]]
Result string: 15 min

Query string: Another compound: O=C1N[C@H](Cc2ccccc2)C(=O)N[C@H](Cc2c[nH]c3ccccc23)C(=O)N[C@@H](Cc2ccccc2)C(=O)N2CCC[C@H]12 (single isomer, unassigned) [Stereoisomer 5, cyclo[Phe-D-Pro-D-Phe-D-Trp]]
Result string: 15 min

###

Molecular target: rat MOR (Rattus norvegicus, UniProt P33535)
Construct: expressed in transfected cells
Sequence (P33535 whole entry): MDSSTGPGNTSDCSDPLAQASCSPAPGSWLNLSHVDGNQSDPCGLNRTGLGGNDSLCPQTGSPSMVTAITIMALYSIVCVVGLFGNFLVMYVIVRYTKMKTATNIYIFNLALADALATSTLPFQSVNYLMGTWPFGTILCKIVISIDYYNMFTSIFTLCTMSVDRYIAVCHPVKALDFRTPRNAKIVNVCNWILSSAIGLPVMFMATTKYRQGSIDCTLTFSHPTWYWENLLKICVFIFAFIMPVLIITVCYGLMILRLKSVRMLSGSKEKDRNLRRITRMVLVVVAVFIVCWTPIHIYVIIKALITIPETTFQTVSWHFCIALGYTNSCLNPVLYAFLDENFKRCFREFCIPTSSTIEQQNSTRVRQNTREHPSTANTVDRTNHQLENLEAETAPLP
Test: Radioligand equilibrium competition binding, MOR
Settings: [3H]DAMGO; membranes from CHO cells expressing rat MOR; mean ± SEM, at least three experiments
Value kind: Ki (nM)
Field format: number, assumed nM, no unit text.

Query string: What Ki value was documented for this compound, O=C1N[C@H](Cc2ccccc2)C(=O)N[C@H](Cc2c[nH]c3ccccc23)C(=O)N[C@@H](Cc2ccccc2)C(=O)N2CCC[C@H]12 (single isomer, unassigned) [Stereoisomer 5, cyclo[Phe-D-Pro-D-Phe-D-Trp]] ?
Result string: 5800

Query string: Further, for O=C1N[C@@H](Cc2ccccc2)C(=O)N2CCC[C@@H]2C(=O)N[C@@H](Cc2ccccc2)C(=O)N[C@H]1Cc1c[nH]c2ccccc12 [CJ-15,208, cyclo[Phe-D-Pro-Phe-Trp]] ?
Result string: 451

Query string: Try this compound next: O=C1N[C@@H](Cc2ccccc2)C(=O)N2CCC[C@@H]2C(=O)N[C@H](Cc2ccccc2)C(=O)N[C@H]1Cc1c[nH]c2ccccc12 (single isomer, unassigned) [Stereoisomer 2, cyclo[Phe-D-Pro-D-Phe-Trp]]
Result string: 3920

Query string: Continue with O=C1N[C@H](Cc2ccccc2)C(=O)N2CCC[C@@H]2C(=O)N[C@H](Cc2ccccc2)C(=O)N[C@H]1Cc1c[nH]c2ccccc12 (single isomer, unassigned) [Stereoisomer 3, cyclo[D-Phe-D-Pro-D-Phe-Trp]]
Result string: 7780

###

Target: rat KOR (Rattus norvegicus)
Sequence (P34975 whole entry): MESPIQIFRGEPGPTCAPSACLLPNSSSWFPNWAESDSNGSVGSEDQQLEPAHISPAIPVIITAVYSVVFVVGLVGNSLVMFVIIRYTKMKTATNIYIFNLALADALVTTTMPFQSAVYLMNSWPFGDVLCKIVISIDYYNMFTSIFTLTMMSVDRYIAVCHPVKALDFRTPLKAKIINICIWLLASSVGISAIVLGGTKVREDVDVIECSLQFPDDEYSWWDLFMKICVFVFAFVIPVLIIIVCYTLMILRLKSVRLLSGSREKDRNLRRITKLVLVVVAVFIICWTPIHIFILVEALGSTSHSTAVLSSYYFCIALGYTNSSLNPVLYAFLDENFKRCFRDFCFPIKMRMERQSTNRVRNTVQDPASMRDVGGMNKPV
Conditions: ratio Ki(MOR)/Ki(KOR)
Binary call on Selectivity Ki (MOR) Ki (KOR): yes (1) from 10 upward, no (0) beneath that.

Query string: Could you please find out whether O=C1N[C@H](Cc2ccccc2)C(=O)N2CCC[C@@H]2C(=O)N[C@H](Cc2ccccc2)C(=O)N[C@H]1Cc1c[nH]c2ccccc12 (single isomer, unassigned) [Stereoisomer 3, cyclo[D-Phe-D-Pro-D-Phe-Trp]] has Selectivity Ki (MOR) Ki (KOR) that meets 10 or exceeds it?
Result string: no (0)

Query string: Please give the result for O=C1N[C@@H](Cc2ccccc2)C(=O)N2CCC[C@@H]2C(=O)N[C@@H](Cc2ccccc2)C(=O)N[C@H]1Cc1c[nH]c2ccccc12 [CJ-15,208, cyclo[Phe-D-Pro-Phe-Trp]] too.
Result string: yes (1)

Query string: Repeat with O=C1N[C@@H](Cc2ccccc2)C(=O)N2CCC[C@@H]2C(=O)N[C@H](Cc2ccccc2)C(=O)N[C@H]1Cc1c[nH]c2ccccc12 (single isomer, unassigned) [Stereoisomer 2, cyclo[Phe-D-Pro-D-Phe-Trp]]
Result string: yes (1)

Query string: Next molecule: O=C1N[C@H](Cc2ccccc2)C(=O)N[C@H](Cc2c[nH]c3ccccc23)C(=O)N[C@@H](Cc2ccccc2)C(=O)N2CCC[C@H]12 (single isomer, unassigned) [Stereoisomer 5, cyclo[Phe-D-Pro-D-Phe-D-Trp]]
Result string: yes (1)

Query string: Can you check O=C1N[C@H](Cc2c[nH]c3ccccc23)C(=O)N[C@@H](Cc2ccccc2)C(=O)N2CCC[C@@H]2C(=O)N[C@H]1Cc1ccccc1 [[D-Trp]CJ-15,208, cyclo[Phe-D-Pro-Phe-D-Trp]] next?
Result string: yes (1)
